target: D(1A) dopamine receptor (Homo sapiens) (UniProt P21728); experiment: D1 receptor positive allosteric modulators, retest, confirmation, cell-based, HEK293 D1, CRE-luciferase, duplicate (AID 642); settings: dopamine EC30 potentiation, at 10 µM, stronger effect = higher value
Sequence (P21728 whole entry, looked up): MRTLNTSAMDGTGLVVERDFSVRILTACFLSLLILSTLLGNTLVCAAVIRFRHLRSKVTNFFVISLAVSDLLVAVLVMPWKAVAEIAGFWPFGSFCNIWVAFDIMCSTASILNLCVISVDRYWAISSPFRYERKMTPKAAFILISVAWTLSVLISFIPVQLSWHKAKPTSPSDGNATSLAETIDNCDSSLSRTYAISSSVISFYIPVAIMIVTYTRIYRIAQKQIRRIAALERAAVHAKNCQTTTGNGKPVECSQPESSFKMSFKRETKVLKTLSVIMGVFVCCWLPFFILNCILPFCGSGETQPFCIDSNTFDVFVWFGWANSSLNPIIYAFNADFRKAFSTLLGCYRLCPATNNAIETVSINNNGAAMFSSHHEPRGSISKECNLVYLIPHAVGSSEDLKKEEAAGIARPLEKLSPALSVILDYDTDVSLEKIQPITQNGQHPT
The campaign covered roughly 2,200 compounds. About 2,000 (91%) were called active. The set was probably picked from earlier hits. Only a sample is shown.
What luminescence was measured for each of the following?

Determine from records and report luminescence for N#Cc1nc(Cc2ccccc2)oc1NCCc1ccccc1 8810 (active)

Determine from records and report luminescence for COc1ccc(Nc2oc(-c3ccccc3Cl)nc2C#N)cc1 15100 (active)

Determine from records and report luminescence for CCn1c(=N)c(S(=O)(=O)c2ccc(F)cc2)cc2c(=O)n3ccccc3nc21 18300 (active)

Determine from records and report luminescence for CCNc1nc(NCC)nc(N(C)n2cnnc2)n1 15800 (active)

Determine from records and report luminescence for Oc1ccc(-c2csc(Nc3cccnc3)n2)cc1 10600 (active)
